The origin of these recorded values is PubChem BioAssay.

// reported composite z-score for each item listed
- system: Fibroblast growth factor 2 (Homo sapiens)
- measurement-protocol: basic fibroblast growth factor binding to printed compounds – biochemical, small-molecule microarray, 635/667 nm fluorescence, primary screen (AID 1133)
- assay-conditions: FGF2, fluorescence 635/667, higher = more signal
quantity-name: composite z-score

1) O=C1O[C@@H](c2ccccc2)[C@@H](c2ccccc2)N2[C@@H](c3ccc(OCCO)cc3)[C@]3(C(=O)Nc4ccc(C#CC5=CCCCC5)cc43)[C@@H](C(=O)NC[C@H](O)c3ccccc3)[C@H]12    1.38
2) CC(CO)N1C(=O)[C@]2(C)C3C(=O)OCCC/C=C\[C@H]3OC23C=CCN(c2ccc(Cl)cc2)C(=O)[C@@H]13 (stereo not given in full)    -0.85
3) COC(=O)[C@@]1(Cc2ccc(OC)cc2)[C@H]2c3cc(C(=O)N4CCCC4)n(CCO)c3C[C@H]2CN1C(=O)c1ccccc1    -0.2
4) COc1ccc([Si](C)(C)[C@H]2[C@H](CC(=O)N3CCC[C@H]3CO)O[C@@]3(C(=O)N(Cc4ccc(N5CCOC5=O)cc4)c4ccccc43)[C@@H]2C)cc1    1.56
5) CC(c1ccccc1)C(O)C1C=CC2C(=O)N(C)C(=O)C2N1Nc1ccccc1 (stereo not given)    -0.579
6) CCOC(=O)C[C@H]1[C@H](OC(=O)c2cc3ccccc3oc2=O)[C@@H](NC(=O)c2ccc3ccccc3n2)c2cc(OCCCO)ccc2N1C(=O)Cc1ccc(OC)cc1    0.509
7) O=C1OCCC/C=C\[C@H]2OC34C=CCN(c5ccc6ccccc6c5)C(=O)[C@H]3N(CCO)C(=O)[C@@H]4C12 (stereo not given in full)    -0.634
8) Cc1ccc(S[C@]2(C(=O)O)CC(=O)N(C3CCCCC3)[C@@H]2c2ccc(CO)cc2I)cc1    0.101
9) CCCCC=C[C@@H](NC(=O)OCc1ccccc1Cl)c1ccccc1    -0.172
10) Cc1ccccc1C(O)C1C=CC2C(=O)NC(=O)C2N1Nc1ccccn1 (stereo not given)    -0.227
11) CC(C)N1C(=O)c2ccccc2[C@@H](C(=O)NCCN2CCOCC2)[C@@H]1c1ccc(CO)cc1    -1.57
12) C=CCNC(=O)[C@@H]1[C@H]2C(=O)O[C@H](c3ccccc3)[C@H](c3ccccc3)N2[C@H](c2ccc(OCCO)cc2)[C@@]12C(=O)N(C(=O)OCCOC)c1ccc(C#Cc3ccc(OC)cc3)cc12    0.93
13) C=C[C@@H](CO)N(Cc1ccc(OC)cc1)S(=O)(=O)c1ccc(Br)cc1    0.965
14) Cc1ccc(S[C@]2(C(=O)NCCN3CCOCC3)CC(=O)N(Cc3ccccc3Cl)[C@@H]2c2ccc(CO)cc2I)cc1    0.388
15) O=C1C2C=CC(C(O)C3CC=CCC3)N(Nc3ccccc3)C2C(=O)N1c1ccccc1 (stereo not given)    0.119
